study_system: Rat SERT (Rattus norvegicus)
Construct: A rat brain without cerebellum (Zivic Laboratories, Inc.—Pittsburgh, Pa.) was homogenized; tissue Zivic Laboratories, Inc; host or cells: rat brain without cerebellum, membranes
Sequence (P31652 whole entry): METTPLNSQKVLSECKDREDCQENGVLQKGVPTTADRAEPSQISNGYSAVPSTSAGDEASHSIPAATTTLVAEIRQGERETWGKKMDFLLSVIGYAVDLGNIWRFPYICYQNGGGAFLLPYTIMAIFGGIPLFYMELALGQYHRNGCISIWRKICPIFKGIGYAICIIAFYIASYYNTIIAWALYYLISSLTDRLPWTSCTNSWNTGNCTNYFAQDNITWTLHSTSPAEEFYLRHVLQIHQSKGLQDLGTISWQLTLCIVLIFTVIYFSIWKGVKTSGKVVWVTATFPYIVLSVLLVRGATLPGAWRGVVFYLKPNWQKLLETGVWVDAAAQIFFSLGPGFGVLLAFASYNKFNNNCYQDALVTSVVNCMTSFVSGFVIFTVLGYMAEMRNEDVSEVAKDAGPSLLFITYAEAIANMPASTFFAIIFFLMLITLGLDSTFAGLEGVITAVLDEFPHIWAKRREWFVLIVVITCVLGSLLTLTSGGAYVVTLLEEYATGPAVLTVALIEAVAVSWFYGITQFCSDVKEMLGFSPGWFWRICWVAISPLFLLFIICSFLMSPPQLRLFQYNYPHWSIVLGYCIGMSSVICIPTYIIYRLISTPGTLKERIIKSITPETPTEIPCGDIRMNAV
test_name: Rat brain SERT binding ([3H]-citalopram displacement)
assay_setup: rat brain membranes without cerebellum, 0.6 nM [3H]-citalopram, 60 min at 25° C.; read-out: Rat SERT Ki
In this section we review reported Ki values for a set of compounds.

These recorded examples may help you get a feel for the data.
compound="CSc1ccc(C2CN(C)Cc3c2ccc(OCCCN2CCOCC2)c3C)cc1 (stereo not shown)" study_system="Rat SERT (Rattus norvegicus)" recorded_measurement="14 nM"
compound="COc1ccc(C2CN(C)Cc3cc(CCCCN4CCC(F)(F)CC4)ccc32)cc1 (stereo not shown)" study_system="Rat SERT (Rattus norvegicus)" recorded_measurement="4 nM"
compound="COc1ccc(C2CN(C)Cc3cc(OCCCN4CCCC(CO)C4)ccc32)cc1 (stereo not shown)" study_system="Rat SERT (Rattus norvegicus)" recorded_measurement="2 nM"
compound="COc1ccc(C2CN(C)Cc3cc(OC4CCN(CC#N)CC4)ccc32)cc1 (stereo not shown)" study_system="Rat SERT (Rattus norvegicus)" recorded_measurement="6 nM"
compound="COc1ccc(C2CN(C)Cc3cc(OCCC4CCCN4C)ccc32)cc1 (single isomer, unassigned) [Example 240A]" study_system="Rat SERT (Rattus norvegicus)" recorded_measurement="2 nM"
compound="CSc1ccc(C2CN(C)Cc3cc(OC4CCN(CCF)CC4)ccc32)cc1 (stereo not shown)" study_system="Rat SERT (Rattus norvegicus)" recorded_measurement="3 nM"
compound="CSc1ccc(C2CN(C)Cc3cc(OCC4CCNCC4)ccc32)cc1 (stereo not shown)" study_system="Rat SERT (Rattus norvegicus)" recorded_measurement="3 nM"
compound="CCCN1Cc2cc(OCCCN3CCCCC3)ccc2C(c2ccc(OC)cc2)C1 (stereo not shown)" study_system="Rat SERT (Rattus norvegicus)" recorded_measurement="104 nM"
compound="COc1ccc(C2CN(C)Cc3cc(OCCCN4CCS(=O)(=O)CC4)ccc32)cc1 (stereo not shown)" study_system="Rat SERT (Rattus norvegicus)" recorded_measurement="3 nM"
compound="CCNCCCOc1ccc2c(c1)CN(C)CC2c1ccc(OC)cc1 (stereo not shown)" study_system="Rat SERT (Rattus norvegicus)" recorded_measurement="1 nM"

[Q] # lookup: Ki of COc1ccc(C2CN(C)Cc3cc(OCC4CCN(CCF)CC4)ccc32)cc1 (stereo not shown)
[A] 6 nM

[Q] // repeat for COc1ccc(C2CN(C)Cc3cc(OCC(F)CN4CCC(F)CC4)ccc32)cc1 (stereo not shown) and report
[A] 3 nM

[Q] // repeat for COc1ccc(C2CN(C)Cc3cc(OCCCN4CCN(C(=O)c5cn(C)cn5)CC4)ccc32)cc1 (stereo not shown) and report
[A] 19 nM

[Q] // repeat for COc1cccc(C2CN(C)Cc3cc(OC4CCNCC4)ccc32)c1 (stereo not shown) and report
[A] 14 nM

[Q] // repeat for CN1Cc2cc(OCCCN3CCC(F)CC3)ccc2C(c2ccccc2Cl)C1 (stereo not shown) and report
[A] 19 nM

----------
study_system: Rat SERT (Rattus norvegicus)
Construct: A rat brain without cerebellum (Zivic Laboratories, Inc.—Pittsburgh, Pa.) was homogenized; tissue Zivic Laboratories, Inc; host or cells: rat brain without cerebellum, membranes
test_name: Rat brain SERT binding ([3H]-citalopram displacement)
assay_setup: rat brain membranes without cerebellum, 0.6 nM [3H]-citalopram, 60 min at 25° C.; read-out: Rat SERT Ki
Note to self: Ki under 6 nM means rule met, ties and anything higher get rule not met.

The examples below pair each entry with its known result.
molecule="COc1ccc(C2CN(C)Cc3cc(CCCCN4CCN(C(C)C)CC4)ccc32)cc1 (stereo not drawn) [Example 283]" category="rule met"
molecule="C(#Cc1ccc2c(c1)CNCC2c1cccnc1)CCN1CCCCC1 (stereo not drawn) [Example 271]" category="rule not met"
molecule="COCCNCCCOc1ccc2c(c1)CN(C)CC2c1ccc(OC)cc1 (stereo not drawn) [Example 225]" category="rule met"
molecule="CCOC(=O)C1CCN(CCCOc2ccc3c(c2)CN(C)CC3c2ccc(OC)cc2)CC1 (stereo not drawn) [Example 33]" category="rule met"

[Q] Here's an entry: COc1ccc(C2CN(C)Cc3cc(OCC4CCN(CC(C)C)CC4)ccc32)c(F)c1 (stereo not drawn) [Example 115] . Is its Ki below 6 nM?
[A] rule not met
